- TARGET OF ASSAY: Polyunsaturated fatty acid 5-lipoxygenase (Homo sapiens) (UniProt P09917)
- Sequence (P09917 whole entry): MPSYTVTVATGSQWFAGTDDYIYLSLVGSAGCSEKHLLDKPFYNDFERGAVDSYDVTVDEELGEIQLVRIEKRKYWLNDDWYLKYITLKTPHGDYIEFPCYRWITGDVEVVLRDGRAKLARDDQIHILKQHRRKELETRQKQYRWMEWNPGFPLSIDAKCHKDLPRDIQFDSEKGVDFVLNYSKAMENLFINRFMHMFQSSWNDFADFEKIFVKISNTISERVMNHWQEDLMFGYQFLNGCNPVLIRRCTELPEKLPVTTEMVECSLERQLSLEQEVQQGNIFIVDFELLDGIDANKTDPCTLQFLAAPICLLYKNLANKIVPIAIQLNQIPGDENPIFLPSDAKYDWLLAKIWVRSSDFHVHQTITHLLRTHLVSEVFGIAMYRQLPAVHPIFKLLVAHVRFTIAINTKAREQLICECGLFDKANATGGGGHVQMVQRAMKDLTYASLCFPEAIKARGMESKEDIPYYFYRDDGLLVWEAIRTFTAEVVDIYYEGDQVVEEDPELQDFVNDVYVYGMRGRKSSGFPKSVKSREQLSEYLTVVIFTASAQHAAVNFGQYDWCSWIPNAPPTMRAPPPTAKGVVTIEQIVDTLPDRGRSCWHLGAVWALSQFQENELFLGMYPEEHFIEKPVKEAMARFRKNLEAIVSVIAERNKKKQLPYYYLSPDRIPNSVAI
- MEASUREMENT PROTOCOL: Inhibition of recombinant human 5-LOX pseudoperoxidase activity expressed in Escherichia coli BL21 assessed as compound redox activity by measuring decrease in 13(S)-HpODE product formation at 10 uM by UV-vis spectrophotometric method
- Parameters: scale not given: the % may be the effect or the level left
READOUT TYPE: Activity (%)

I. O=C(c1ccccc1)c1sc(N2CCOCC2)nc1-c1ccccc1
II. O=C(NC(=S)N1CCN(c2ccccc2)CC1)c1ccccc1
III. O=C(c1ccccc1)c1sc(N2CCCCC2)nc1-c1ccccc1
IV. COc1ccc(-c2nc(N(c3ccccc3)c3ccccc3)sc2C(=O)c2ccccc2)cc1
-- ask Rank order required: Activity, descending. When ranking, write the labels in the order the request describes.
-- reply IV, I, III, II
(IV: 29.4%, I: 2.1%, III: 0.6%, II: -46.2%)
